Tested on: HIPK3
CONDITION LABEL: concentration: 1 μM, replicates: in singlicate; n = 1
Task for the reader: assign each of the following compounds its reported %Inh.
One number for each entry, in %.

// below: answered compounds
So what %Inh did O=C(Nc1n[nH]c2cc(-c3ccsc3)ccc12)C1CC1 get with HIPK3?
24

And CC(C)c1cc(-c2ccc3c(N)n[nH]c3c2)nc(N)n1 ?
9

And COc1ccc(Nc2nccc(-c3ccc(NC(=O)c4cc5cc(F)ccc5[nH]4)cc3)n2)cc1 ?
0

And O=C(Nc1n[nH]c2nc(-c3ccco3)c(Br)cc12)C1CCN(Cc2ccccc2)C1.O=C(O)[C@H](O)[C@@H](O)C(=O)O (centres unmarked) ?
25

Report %Inh for each item below.
1. COc1ccc(Nc2nccc(N3CCC(NC(=O)C(C)c4ccc(Cl)cc4)C3)n2)cc1 (centres unmarked)
2. COc1ccc(Nc2nccc(N3CCC(NC(=O)C(C)c4ccc(Cl)cc4)CC3)n2)cc1 (centres unmarked)
3. CC[C@@H]1CO[C@H](C(=O)Nc2ccccc2)CN1c1cc(-c2ccc3c(N)n[nH]c3c2)nc(NC)n1
4. O=c1cc(N2CCOCC2)nc2n(Cc3ccccc3F)ccn12
5. Cc1c(Cn2c3ccccc3n3c(=O)cc(N4CCOCC4)nc23)cccc1C(F)(F)F
6. CSc1ccc(-c2nc3n(c2-c2ccncc2)CCC3)cc1
7. COC(=O)C(NC(=O)NC1CCN(c2ccnc(Nc3ccc(F)cc3)n2)C1)c1ccccc1 (centres unmarked)

[4, 15, 4, 35, 16, 6, 48]

Report %Inh for each item below.
1. Cl.Cl.Cl.N#Cc1ccc(CCNc2nccc(-c3cccc(CN4CCNCC4)c3)n2)cc1
2. Cc1c(Cn2c(C)c(C)n3c(=O)cc(N4CCOCC4)nc23)cccc1C(F)(F)F
3. COc1cccc(CNC(=O)NC2CCN(c3ccnc(Nc4ccc(F)cc4)n3)C2)c1 (centres unmarked)

1: 21; 2: 13; 3: 36

====

Tested on: TIE1
CONDITION LABEL: concentration: 1 μM, replicates: in singlicate; n = 1
Task for the reader: assign each of the following compounds its reported %Inh.
Provide a numeric answer, followed by its unit.

// below: answered compounds
Name the recorded %Inh for CNc1nc(-c2ccc3c(N)n[nH]c3c2)cc(N2C[C@@H](C(=O)Nc3ccccc3)CC[C@H]2C)n1 .
0%

And CSc1ccc(-c2nc3n(c2-c2ccncc2)CCC3)cc1 ?
0%

And CS(=O)(=O)CCNCc1nc(-c2ccc3ncnc(Nc4ccc(OCc5ccccc5)c(Cl)c4)c3c2)cs1.Cl ?
0%

And COC(=O)c1cccc(NC(=O)NC2CCN(c3ccnc(Nc4ccc(F)cc4)n3)C2)c1 (centres unmarked) ?
0%

Report %Inh for each item below.
1. Cc1cccc2c(-c3ccncn3)c(-c3ccc(F)cc3)nn12
2. Cc1ccc(-c2nc(Nc3ccncc3)c3ccccc3n2)s1

["14%", "19%"]

Report %Inh for each item below.
1. Cn1cncc1-c1cc2c(Nc3ccc(OCc4ccccc4)cc3)ncnc2cn1
2. NS(=O)(=O)c1cccc(N/C=C2\C(=O)Nc3ccc(S(=O)(=O)Cc4c(Cl)cccc4Cl)cc32)c1
3. COC(=O)C(NC(=O)NC1CCN(c2ccnc(Nc3ccc(F)cc3)n2)C1)c1ccccc1 (centres unmarked)
4. Cc1ccc(NC(=O)Nc2ccc(Cl)cc2)cc1-c1ccc(C(=O)Nc2ccncc2)cc1
5. Fc1ccc(-c2nc[nH]c2-c2ccncc2)cc1

0%
0%
0%
0%
0%

====

Test system: PCTK3
Construct: gene CDK18
CONDITION LABEL: concentration: 1 μM, replicates: in singlicate; n = 1
READOUT: %Inh
Provide a numeric answer, followed by its unit.

Name the recorded %Inh for COc1ccc(Nc2nccc(N3CCC(NC(=O)c4cc5ccccc5s4)C3)n2)cc1 (centres unmarked) [GSK1379738] .
0%

Report %Inh for each item below.
1. CC(=O)c1c(C)c2cnc(Nc3ccn(C)n3)nc2n(C2CCCC2)c1=O
2. CNCc1ccc2nc(NC(=O)c3ccc(C(C)(C)C)cc3)cn2c1
3. COc1cc2ncnc(Nc3cccc(Br)c3)c2cc1OC.Cl [GI230329]
4. CNc1cc(-c2ccc3c(N)n[nH]c3c2)nc(N)n1 [GSK2224810]

100%
0%
2%
0%

====

Test system: RPS6KA4(Kin.Dom.1-N-terminal)
CONDITION LABEL: concentration: 1 μM, replicates: in singlicate; n = 1
Param threshold (2%) applies to %Inh; output Yes when value >= threshold, No when value < threshold.

Confirm if %Inh reported for the molecule CNc1cc(-c2ccc3c(N)n[nH]c3c2)nc(N)n1 is 2% or above.
No

And Cc1c(Cn2c(C)c(C)n3c(=O)cc(N4CCOCC4)nc23)cccc1C(F)(F)F ?
No

And COc1ccc(Nc2nccc(N3CCC(NC(=O)C(C)c4ccc(Cl)cc4)CC3)n2)cc1 (stereo not shown) ?
Yes

And CC(=O)c1cccc(NC(=O)NC2CCN(c3ccnc(Nc4ccc(F)cc4)n3)C2)c1 (stereo not shown) ?
No

And CCn1c(-c2ccccc2)nc2cnccc21 ?
No

New cases:
Confirm if %Inh reported for the molecule CNCc1ccc2nc(NC(=O)c3ccc(C(C)(C)C)cc3)cn2c1 is 2% or above.
Yes

And O=C(Nc1n[nH]c2nc(-c3cccs3)c(Br)cc12)C1CCCC1 ?
Yes

And O=C(Nc1n[nH]c2nc(-c3cccs3)c(Br)cc12)C1CC1 ?
No

And CS(=O)(=O)CCNCc1nc(-c2ccc3ncnc(Nc4ccc(OCc5ccccc5)c(Cl)c4)c3c2)cs1.Cl ?
Yes

And O=c1cc(N2CCOCC2)nc2n(Cc3ccccc3F)ccn12 ?
Yes

And COc1ccc2cc(-c3nc(-c4ccccc4C(C)C)[nH]c3-c3ccncc3)ccc2c1 ?
Yes

And c1ccc(-c2ccnc3[nH]ccc23)cc1 ?
No

And Cc1cnc(N)c(/C=C/c2cncc(C(=O)NCCc3ccc(Cl)cc3Cl)c2)c1.Cl ?
Yes

And CCCCc1nn2ncccc2c1-c1ccnc(NC2CC2)n1 ?
No

And CN1c2ccc(-c3ccc(C(N)=O)cc3)cc2-c2[nH]ncc2S1(=O)=O ?
Yes

And COc1ccc(Nc2nccc(N3CCC(NC(=O)C(C)c4ccc(Cl)cc4)C3)n2)cc1 (stereo not shown) ?
Yes

And CSc1ccc(-c2nc3n(c2-c2ccncc2)CCC3)cc1 ?
Yes

====

System: CDKL2
CONDITION LABEL: concentration: 1 μM, replicates: in singlicate; n = 1
READOUT: %Inh (%)
Give bare numbers, in %.

// below: answered compounds
Name the recorded %Inh for Cc1cnc(N)c(/C=C/c2cncc(C(=O)NCCc3ccc(Cl)cc3Cl)c2)c1.Cl .
15

And Cn1cnc2c(N)ncnc21 ?
48

And Cc1ccc(NC(=O)Nc2ccc(Cl)c(C(F)(F)F)c2)cc1-c1ccc(C(=O)Nc2ccncc2)cc1 ?
34

Report %Inh for each item below.
1. O=C1NC(=O)C(c2ccc(Cl)cc2)=C1Nc1cccc(Cl)c1
2. O=C(Nc1n[nH]c2cc(-c3ccsc3)ccc12)C1CC1
3. CNc1nc(-c2ccc3c(N)n[nH]c3c2)cc(N2C[C@@H](C(=O)Nc3ccccc3)CC[C@H]2C)n1
4. COc1ccc(Nc2nccc(NCCNC(=O)Nc3cc(C)ccc3C)n2)cc1
5. CNC(=O)c1ccc(C)c(-n2c(C)cc(OCc3ccc(F)cc3F)c(Br)c2=O)c1

20
94.7
0
21
3

Name the recorded %Inh for Cc1c(Cn2c(C)c(C)n3c(=O)cc(N4CCOCC4)nc23)cccc1C(F)(F)F .
6

====

System: ROCK1;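 further: kd values determined as follow-up on hits from a single-replicate KINOMEscan panel screen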
READOUT: Kd (nM)
One number for each entry, in nM.

So what Kd did Cn1cncc1-c1cc2c(Nc3ccc(OCc4ccccc4)cc3)ncnc2cn1 get with ROCK1?
590

====

Tested on: TRPM6
CONDITION LABEL: concentration: 1 μM, replicates: in singlicate; n = 1
Label T when %Inh is strictly below 1%; at or above that, label F.

Problem: For the molecule CC(=O)c1c(C)c2cnc(Nc3ccc(N4CCNCC4)cn3)nc2n(C2CCCC2)c1=O , is %Inh under 1%?
T

New cases:
Problem: For the molecule Cn1cncc1C(=O)NC1CCN(c2ccnc(Nc3ccc(F)cc3)n2)C1 (centres unmarked) , is %Inh under 1%?
F

And Cc1ccc(NC(=O)Nc2ccccc2F)cc1-c1ccc(C(=O)Nc2ccncc2)cc1 ?
F

And Cc1ccc(NC(=O)Nc2ccccc2)cc1-c1ccc(C(=O)Nc2ccncc2)cc1 ?
F

And O=C(Nc1n[nH]c2cc(-c3ccsc3)ccc12)C1CC1 ?
T

And COc1ccc(Nc2nccc(N3CCC(NC(=O)c4cc5ccccc5s4)C3)n2)cc1 (centres unmarked) ?
F

And COc1ccc(Nc2nccc(NCCNC(=O)Nc3cc(C)ccc3C)n2)cc1 ?
T

Values from paper PMC5540273
